Assign composite z-score to each entry below.
Experiment: small-molecule microarray binders of probe aNog, primary screen, biochemical, biotinylated probe, 635/667 nm fluorescence (AID 1115);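 further: probe is biotinylated aNog protein used at 0.15 µg/mL for 1 h at 4 C; z-score combines 667 nm fluorescence of each spot with its signal to noise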
Conditions: higher = more signal
Give bare numbers.

Observe how each entry below is paired with its result.
1) N#Cc1ccc(NN2C(C(O)c3cccc4ccccc34)C=CC3C(=O)N(c4ccccc4)C(=O)C32)cc1 (stereo not drawn)	0.837
2) Cc1ccc(F)cc1S(=O)(=O)N[C@@H]1CCN(Cc2ccc(CC(C)C)cc2)C1	-0.272
3) COC(=O)CC=C[C@@H](C)[C@@H](C=NO[C@H](C)c1cn([C@@H]2COC[C@H]2O)nn1)OC	-0.0762
4) CO[C@@H]1COC(=O)CC=C[C@@H](C)[C@H](OC)COC(=O)[C@H](COCc2ccccc2)NC(=O)CC=C[C@H]1C	-0.625

Please give composite z-score for each item listed below.
1. C[C@@H]1C=CCC(=O)OC[C@H](C)C(=O)N2CCC[C@H]2C(=O)OC1
2. CC(C)=CCCC(C)=CCON=C1[C@H]2CCn3c(=O)n(Cc4cc5c(cc4Cl)OCO5)c(=O)n3[C@H]2[C@H](O)[C@@H]2O[C@H]12
3. CCCCc1nc2c(c3c1C[C@H](C)OC3)CN(CCC(C)C)CC2
4. CC1CC/C=C\[C@H]2OC34C=CCN(Cn5nnc6ccccc65)C(=O)[C@H]3N(CCO)C(=O)[C@@H]4C2C(=O)O1 (stereo partly drawn)

Ans.
0.0419
-0.181
0.372
-0.256
